System: RAW264.7
test: Cytotoxicity against mouse RAW264.7 cells after 24 hrs by WST-1 assay
Format: cell-based
conditions: RAW264.7, 24 h
test-readout: pIC50
Give only the number. pIC50 is defined as minus log10 of concentration in molar units.

Endpoint output: pIC50 of N[C@@H](Cc1ccc(OC(=O)c2c[nH]c3cc(Br)c(O)cc23)cc1)C(=O)O . Value?
3.77

---

Tested on: RAW264.7
test: Inhibition of NO production in LPS-stimulated mouse RAW264.7 cells assessed as nitrite accumulation after 10 mins by Griess reaction method
Format: functional, cell-based
conditions: RAW264.7, 10 min
Here the recorded pIC50 is given for each entry.
Answer as the number alone; pIC50 is minus log10 of concentration in mol/L.

chemical-structure | pIC50
N[C@@H](Cc1ccc(OC(=O)c2c[nH]c3cc(Br)c(O)cc23)cc1)C(=O)O | 5.05

Okay, now this compound:
Requested read-out: pIC50. Entry: N=C(N)NCCC[C@@H](NC(=O)c1ccc(OC(=O)c2ccc(O)cc2)cc1)C(=O)O
4.02

Where do these numbers come from? They come from ChEMBL document CHEMBL1914300.
